# measurementTarget: CSF1R (FMS) (Homo sapiens)
# Sequence (P07333 20-972): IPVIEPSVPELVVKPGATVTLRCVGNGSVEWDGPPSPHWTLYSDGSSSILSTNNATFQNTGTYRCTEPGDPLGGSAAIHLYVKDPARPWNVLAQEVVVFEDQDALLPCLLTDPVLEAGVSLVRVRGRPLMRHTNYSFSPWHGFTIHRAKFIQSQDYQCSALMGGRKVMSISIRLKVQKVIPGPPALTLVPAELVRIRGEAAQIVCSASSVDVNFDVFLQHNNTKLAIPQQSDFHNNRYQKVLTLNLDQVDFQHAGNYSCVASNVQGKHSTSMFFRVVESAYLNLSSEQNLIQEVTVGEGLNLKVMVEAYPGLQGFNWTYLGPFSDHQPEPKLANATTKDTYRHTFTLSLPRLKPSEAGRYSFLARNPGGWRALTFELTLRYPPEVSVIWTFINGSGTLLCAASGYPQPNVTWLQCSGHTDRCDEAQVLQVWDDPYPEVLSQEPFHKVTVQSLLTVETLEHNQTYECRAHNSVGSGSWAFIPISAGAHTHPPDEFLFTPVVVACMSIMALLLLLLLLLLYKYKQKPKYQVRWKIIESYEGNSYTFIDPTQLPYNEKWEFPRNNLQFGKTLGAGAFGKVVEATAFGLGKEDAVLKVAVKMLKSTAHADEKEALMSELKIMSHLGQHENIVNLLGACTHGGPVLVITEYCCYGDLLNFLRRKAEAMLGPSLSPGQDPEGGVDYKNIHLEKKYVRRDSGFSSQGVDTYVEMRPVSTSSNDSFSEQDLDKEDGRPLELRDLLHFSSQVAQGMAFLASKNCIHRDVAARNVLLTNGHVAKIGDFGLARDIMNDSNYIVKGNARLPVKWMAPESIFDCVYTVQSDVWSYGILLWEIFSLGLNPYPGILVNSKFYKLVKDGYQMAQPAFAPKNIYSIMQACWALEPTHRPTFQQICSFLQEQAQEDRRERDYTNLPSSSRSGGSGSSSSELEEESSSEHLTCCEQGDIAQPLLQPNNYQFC
reportedProperty: IC50 (nM)
Provide only the numeric value, understood in nM.

Please indicate IC50 recorded for CCc1cc(NC(=O)NCc2ccc(-c3cc(NC(=O)c4ccc(CN5CCN(C)CC5)cc4)[nH]n3)cc2)no1 [BPR1J-340] 78

---

# measurementTarget: FLT1 (VEGFR1) (Homo sapiens)
# Sequence (P17948 781-1338): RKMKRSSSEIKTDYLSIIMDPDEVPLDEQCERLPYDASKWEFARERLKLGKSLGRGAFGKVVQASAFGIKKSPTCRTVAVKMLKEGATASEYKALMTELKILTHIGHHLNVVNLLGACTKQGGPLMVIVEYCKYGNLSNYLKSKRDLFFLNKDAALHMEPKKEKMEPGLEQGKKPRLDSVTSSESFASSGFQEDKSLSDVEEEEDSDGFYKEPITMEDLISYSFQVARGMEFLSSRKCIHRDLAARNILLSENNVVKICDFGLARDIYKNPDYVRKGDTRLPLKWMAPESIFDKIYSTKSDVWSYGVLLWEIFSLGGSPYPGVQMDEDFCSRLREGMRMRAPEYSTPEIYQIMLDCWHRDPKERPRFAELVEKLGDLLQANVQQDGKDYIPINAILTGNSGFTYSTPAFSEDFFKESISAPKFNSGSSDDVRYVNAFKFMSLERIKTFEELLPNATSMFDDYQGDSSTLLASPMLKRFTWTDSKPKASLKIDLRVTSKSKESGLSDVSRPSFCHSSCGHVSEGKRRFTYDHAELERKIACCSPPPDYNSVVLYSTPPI
reportedProperty: pIC50
Conceptually, pIC50 converts a concentration in mol/L into minus its log10.

Please indicate pIC50 recorded for CCc1cc(NC(=O)NCc2ccc(-c3cc(NC(=O)c4ccc(CN5CCN(C)CC5)cc4)[nH]n3)cc2)no1 [BPR1J-340] 6.79

---

# measurementTarget: NTRK1 (TRKA) (Homo sapiens, UniProt P04629)
# Sequence (P04629 33-796): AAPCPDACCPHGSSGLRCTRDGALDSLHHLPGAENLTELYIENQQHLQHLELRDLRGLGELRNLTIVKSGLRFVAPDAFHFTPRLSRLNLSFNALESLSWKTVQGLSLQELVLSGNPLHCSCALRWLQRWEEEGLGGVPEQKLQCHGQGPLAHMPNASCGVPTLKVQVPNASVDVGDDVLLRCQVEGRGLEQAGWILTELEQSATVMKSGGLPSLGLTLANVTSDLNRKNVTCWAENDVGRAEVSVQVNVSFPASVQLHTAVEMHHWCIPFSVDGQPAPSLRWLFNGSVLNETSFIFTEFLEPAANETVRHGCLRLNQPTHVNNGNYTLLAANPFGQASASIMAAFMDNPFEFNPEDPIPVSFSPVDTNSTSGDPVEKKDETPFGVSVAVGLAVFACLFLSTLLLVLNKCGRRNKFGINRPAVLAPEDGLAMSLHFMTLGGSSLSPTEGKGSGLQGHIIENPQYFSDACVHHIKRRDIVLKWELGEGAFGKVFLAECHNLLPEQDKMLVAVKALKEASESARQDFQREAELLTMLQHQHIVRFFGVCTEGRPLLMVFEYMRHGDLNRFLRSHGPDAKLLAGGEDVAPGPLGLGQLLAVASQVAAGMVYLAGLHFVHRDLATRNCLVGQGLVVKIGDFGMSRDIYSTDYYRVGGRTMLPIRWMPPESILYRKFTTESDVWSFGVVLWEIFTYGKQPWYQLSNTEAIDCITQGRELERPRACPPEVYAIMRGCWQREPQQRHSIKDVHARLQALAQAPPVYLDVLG
reportedProperty: pIC50
Conceptually, pIC50 converts a concentration in mol/L into minus its log10.

Identify measured pIC50 obtained with NTRK1 (TRKA) (Homo sapiens, UniProt P04629) for `CCc1cc(NC(=O)NCc2ccc(-c3cc(NC(=O)c4ccc(CN5CCN(C)CC5)cc4)[nH]n3)cc2)no1` . 8.10

---

# testMethodNotes: Pharmacokinetic analysis in rats
# Assay type: in vivo, Sprague-Dawley rats
# particulars: male, Sprague-Dawley, plasma; Rat IV, dose 1.5 mg/kg; read-out: Vss
reportedProperty: Vd (L/kg)
Provide only the numeric value, understood in L/kg.

Please indicate Vd recorded for `CCc1cc(NC(=O)NCc2ccc(-c3cc(NC(=O)c4ccc(CN5CCN(C)CC5)cc4)[nH]n3)cc2)no1` 10.3

---

# testMethodNotes: Pharmacokinetic analysis in rats
# Type: in vivo, Sprague-Dawley rats
# particulars: male, Sprague-Dawley, plasma; Rat IV, dose 1.5 mg/kg
reportedProperty: clearance (mL/min/kg)
Provide only the numeric value, understood in mL/min/kg.

Please indicate clearance recorded for CCc1cc(NC(=O)NCc2ccc(-c3cc(NC(=O)c4ccc(CN5CCN(C)CC5)cc4)[nH]n3)cc2)no1 [BPR1J-340] 20.4

---

# testMethodNotes: Pharmacokinetic analysis in rats
# Format: in vivo, Sprague-Dawley rats
# particulars: male, Sprague-Dawley, plasma; Rat IV, dose 1.5 mg/kg; read-out: AUC(0–24)
reportedProperty: AUC(0-t) (ng·h/mL)
Provide only the numeric value, understood in ng·h/mL.

Please indicate AUC(0-t) recorded for `CCc1cc(NC(=O)NCc2ccc(-c3cc(NC(=O)c4ccc(CN5CCN(C)CC5)cc4)[nH]n3)cc2)no1` 1130
